From: patent US10711008B2

# System: TC71 (Type 1, 7/6) cells (Ewing Sarcoma cell line)
# Method Summary: Cell growth inhibition, modified tetrazolium salt assay (CCK-8 kit), TC71 cells
# Format: cell-based, human
# Condition Label: 3 days with compound at 0.02 to 5 μM, CCK-8, A450, 50% inhibition of cell viability
Recorded Metric: IC50

Form: compound = O=C(CC1(O)C(=O)Nc2c(Cl)ccc(Cl)c21)c1ccc(C2CC2)cc1 (stereo not shown) [TK-216-2, reference compound] ; IC50 = < 5 µM

* * *

# Tested on: SKES (type 2, 7/5) cells (Ewing Sarcoma cell line)
# Method Summary: Cell growth inhibition, modified tetrazolium salt assay (CCK-8 kit), SKES cells
# Type: cell-based, human
# Condition Label: Homo sapiens, 72 h, 3 days with compound at 0.02 to 5 μM, CCK-8, A450, 50% inhibition of cell viability
pIC50: −log10 of the molar value.
Would you mind telling me the reported pIC50 of each entry?

# annotated cases, reported pIC50 shown
compound="O=C(CC1(O)C(=O)Nc2c(Cl)ccc(Cl)c21)c1ccc2sccc2c1 (stereo not shown) [TK Analog 10]" recorded_metric=pIC50 observed="> 5.30"
compound="COc1ccc2nn(CC3(O)C(=O)Nc4c(Cl)ccc(Cl)c43)cc2c1 (stereo not shown) [TK Analog 16A]" recorded_metric=pIC50 observed="< 5.30"
compound="O=C(CC1(O)C(=O)Nc2c(Cl)ccc(Cl)c21)c1cc(C2CC2)cs1 (stereo not shown) [TK Analog 23]" recorded_metric=pIC50 observed="< 5.30"
compound="O=C(CC1(O)C(=O)Nc2c(Cl)ccc(Cl)c21)c1ccc(C2(F)CC2)cc1 (stereo not shown) [TK Analog 2]" recorded_metric=pIC50 observed="> 5.30"
compound="O=C(CC1(O)C(=O)Nc2c(Cl)ccc(Cl)c21)c1ccc2occc2c1 (stereo not shown) [TK Analog 9]" recorded_metric=pIC50 observed="> 5.30"
compound="COc1ccc(C(=O)CC2(O)C(=O)Nc3c(Cl)ccc(Cl)c32)c(F)c1 (stereo not shown) [TK Analog 15A]" recorded_metric=pIC50 observed="> 5.30"

Attention now shifts to the item below.
Form: compound = COc1ccc(C(=O)CC2(F)C(=O)Nc3c(Cl)ccc(Cl)c32)cc1 (stereo not shown) [TK Analog 7] ; pIC50 = > 5.30
